# System: Fibroblast
# Procedure details: Multiplex assay against human fibroblast
# Assay type: toxicity, cell-based
# Settings: 12 h, 1 µM, compound concentration 1 uM, replicate 2
Exercise: state measured Population Pyknosed Nuclei (%) for each of the compounds provided.
Write the value in % as a bare number.

Incoming: Record request: Population Pyknosed Nuclei (%) value, item Cl.Cl.OCCOCCN1CCN(C(c2ccccc2)c2ccc(Cl)cc2)CC1 (stereo unspecified) [HYDROXYZINE HYDROCHLORIDE]
Outgoing: 20

Incoming: Please do the same for COCCn1c(C)c(C)s/c1=N\C(=O)C1C(C)(C)C1(C)C as well.
Outgoing: 19

Incoming: Please do the same for CCCCCCNC(=O)Nc1ccc(S(=O)(=O)Nc2ccc(CCNC[C@H](O)COc3ccc(O)cc3)cc2)cc1 as well.
Outgoing: 19

Incoming: Please do the same for CC(C)(O)C(=O)N1CCN(c2ccc(C(F)(F)F)c(C3=C(c4c[nH]c5ccccc45)C(=O)NC3=O)c2)CC1 as well.
Outgoing: 22

Incoming: Please do the same for COc1c(Nc2ccc(S(C)(=O)=O)nc2C)ncnc1OC1CCN(C(=O)OC(C)C)CC1 as well.
Outgoing: 33

Incoming: Please do the same for CCCCC[C@H](O)/C=C/[C@H]1[C@H](O)CC(=O)[C@@H]1CCCCCCC(=O)O as well.
Outgoing: 18

Incoming: Please do the same for COc1cc(C(=O)N2CC[C@@H](O)[C@@H](N)C2)cc2nc(-c3cc4ccccc4n3CC3CC3)n(C)c12.Cl as well.
Outgoing: 31

Incoming: Please do the same for COc1ccc2c(c1OCc1ccccc1)C[C@@H](C(=O)O)N(C(=O)C(c1ccccc1)c1ccccc1)C2 as well.
Outgoing: 27

Incoming: Please do the same for O=c1nc2[nH]c3ccccc3nc-2c(=O)[nH]1 as well.
Outgoing: 23

Incoming: Please do the same for COc1cc(OC2CCN(C(C)=O)CC2)ccc1C(=O)N1CCC(N2C(=O)OCc3ccccc32)CC1 as well.
Outgoing: 17

Incoming: Please do the same for OCCCNc1cc(-c2ccnc(Nc3cccc(Cl)c3)n2)ccn1 as well.
Outgoing: 24

Incoming: Please do the same for CCC(=O)OCC(=O)[C@@]1(OC(=O)CC)[C@@H](C)C[C@H]2[C@@H]3CCC4=CC(=O)C=C[C@]4(C)[C@@]3(Cl)[C@@H](O)C[C@@]21C [BECLOMETHASONE DIPROPIONATE] as well.
Outgoing: 30

Incoming: Please do the same for O=C(NCCNCC(O)COc1ccc(O)cc1)N1CCOCC1.O=C(NCCNCC(O)COc1ccc(O)cc1)N1CCOCC1.O=C(O)/C=C/C(=O)O (stereo unspecified) [XAMOTEROL FUMARATE] as well.
Outgoing: 23

Incoming: Please do the same for COC(c1ccccc1)(c1ccccc1)[C@H](Oc1nc(C)cc(C)n1)C(=O)O as well.
Outgoing: 25

Incoming: Please do the same for C[C@@H]1CC(=O)Nc2cccc(-c3ccc4c(c3)c(-c3cnn(C)c3)nn4C)c2N1 as well.
Outgoing: 26

Incoming: Please do the same for Cc1cc(O)c(-c2ccc([C@@H](C)CN(C)C)cc2)c2c1[nH]c(=O)c1sccc12 as well.
Outgoing: 21

---

# System: Fibroblast
# Procedure details: Multiplex assay against human fibroblast
# Assay type: toxicity, cell-based
# Settings: 12 h, 1 µM, compound concentration 1 uM, replicate 1
Value type: Population Hoechst High Intensity Objects (%)
Write the value in % as a bare number.

Incoming: Please provide the recorded Population Hoechst High Intensity Objects (%) for CCCCC[C@H](O)/C=C/[C@H]1[C@H](O)CC(=O)[C@@H]1CCCCCCC(=O)O , tested on Fibroblast.
Outgoing: 0

Incoming: Please do the same for COCCCN1CCC(NC(=O)c2cc(Cl)c(N)c3c2OCC3)CC1 [PRUCALOPRIDE] as well.
Outgoing: 3

Incoming: Please do the same for O=c1ccc2ccc(OCCCCN3CCN(c4cccc5sccc45)CC3)cc2[nH]1 as well.
Outgoing: 2

Incoming: Please do the same for CN(C)C/C=C/C(=O)Nc1ccc(C(=O)N2CCCC(Nc3ncc(Cl)c(-c4c[nH]c5ccccc45)n3)C2)cc1 (centres undefined) as well.
Outgoing: 2

---

# Tested on: Fibroblast
# Procedure details: Multiplex assay against human fibroblast
# Format: toxicity, cell-based
# Settings: 12 h, 1 µM, compound concentration 1 uM, replicate 1
Value type: Population Pyknosed Nuclei (%)
Write the value in % as a bare number.

Incoming: Record request: Population Pyknosed Nuclei (%) value, item COC(c1ccccc1)(c1ccccc1)[C@H](Oc1nc(C)cc(C)n1)C(=O)O
Outgoing: 19

Incoming: Please do the same for Nc1nc(CC(=O)Nc2ccc(CCNC[C@H](O)c3ccccc3)cc2)cs1 as well.
Outgoing: 18

Incoming: Please do the same for S=C(NCCCc1c[nH]cn1)NCCCN(Cc1ccc(Cl)c(Cl)c1)c1ccc(Br)cn1 as well.
Outgoing: 14

Incoming: Please do the same for COc1c(Nc2ccc(S(C)(=O)=O)nc2C)ncnc1OC1CCN(C(=O)OC(C)C)CC1 as well.
Outgoing: 14

Incoming: Please do the same for CC(C)C[C@H](CO)Nc1nc(S[C@@H](C)c2ccccc2)nc2nc(N)sc12 as well.
Outgoing: 13

Incoming: Please do the same for COCCn1c(C)c(C)s/c1=N\C(=O)C1C(C)(C)C1(C)C as well.
Outgoing: 11

Incoming: Please do the same for Cc1cc(=O)n(C)c2cc(N3C(=O)CC[C@H](NS(=O)(=O)CC(C)C)[C@H]3c3ccc(Cl)cc3)ccc12 as well.
Outgoing: 26

Incoming: Please do the same for COCCCN1CCC(NC(=O)c2cc(Cl)c(N)c3c2OCC3)CC1 [PRUCALOPRIDE] as well.
Outgoing: 16

Incoming: Please do the same for COc1cc2nc(N3CCN(C(=O)COc4c(OC)cccc4C(C)C)CC3)nc(N)c2cc1OC.Cl.Cl as well.
Outgoing: 30

Incoming: Please do the same for CCC(=O)OCC(=O)[C@@]1(OC(=O)CC)[C@@H](C)C[C@H]2[C@@H]3CCC4=CC(=O)C=C[C@]4(C)[C@@]3(Cl)[C@@H](O)C[C@@]21C [BECLOMETHASONE DIPROPIONATE] as well.
Outgoing: 13

Incoming: Please do the same for Cn1cc(C(=O)OCC2CCN(CCNS(C)(=O)=O)CC2)c2ccccc21 as well.
Outgoing: 14

Incoming: Please do the same for Cc1cc(NC(=O)NCCN2CCC(O)(Cc3ccccc3)CC2)c2ccccc2n1 as well.
Outgoing: 12

Incoming: Please do the same for CC(C)(O)C(=O)N1CCN(c2ccc(C(F)(F)F)c(C3=C(c4c[nH]c5ccccc45)C(=O)NC3=O)c2)CC1 as well.
Outgoing: 17

Incoming: Please do the same for N[C@](CC1c2ccccc2Oc2ccccc21)(C(=O)O)[C@H]1C[C@@H]1C(=O)O as well.
Outgoing: 13

Incoming: Please do the same for COc1cc(Nc2ncc3c(n2)-c2ccc(Cl)cc2C(c2c(F)cccc2OC)=NC3)ccc1C(=O)O as well.
Outgoing: 21

Incoming: Please do the same for CCCCC[C@H](O)/C=C/[C@H]1[C@H](O)CC(=O)[C@@H]1CCCCCCC(=O)O as well.
Outgoing: 12

Incoming: Please do the same for COc1cc(OC2CCN(C(C)=O)CC2)ccc1C(=O)N1CCC(N2C(=O)OCc3ccccc32)CC1 as well.
Outgoing: 22

---

# Tested on: HEK-293T
# Procedure details: Multiplex assay against HEK293T
# Type: toxicity, cell-based
# Settings: human, 48 h, 10 µM, compound concentration 10 uM, replicate 1
Exercise: state measured Population Pyknosed Nuclei (%) for each of the compounds provided.
Record the result as number plus unit.

Incoming: Please provide the recorded Population Pyknosed Nuclei (%) for CN1CCN2c3ccccc3Cc3ccccc3C2C1.Cl (stereo unspecified) [MIANSERIN HYDROCHLORIDE] , tested on HEK-293T.
Outgoing: 8%

Incoming: Please do the same for O=C(O)CCC/C=C\CC1C(O)CC(O)C1/C=C/C(O)COc1cccc(Cl)c1 (stereo unspecified) as well.
Outgoing: 6%

Incoming: Please do the same for Cc1cc(NC(=O)NCCN2CCC(O)(Cc3ccccc3)CC2)c2ccccc2n1 as well.
Outgoing: 8%

Incoming: Please do the same for Nc1nc(CC(=O)Nc2ccc(CCNC[C@H](O)c3ccccc3)cc2)cs1 as well.
Outgoing: 8%

Incoming: Please do the same for CCCCCCNC(=O)Nc1ccc(S(=O)(=O)Nc2ccc(CCNC[C@H](O)COc3ccc(O)cc3)cc2)cc1 as well.
Outgoing: 9%

Incoming: Please do the same for CC(C)(C)c1ccc(CSc2cnn(C(C)(C)C)c(=O)c2Cl)cc1 as well.
Outgoing: 12%

Incoming: Please do the same for CCCCC[C@H](O)/C=C/[C@H]1[C@H](O)CC(=O)[C@@H]1CCCCCCC(=O)O as well.
Outgoing: 7%

Incoming: Please do the same for C[C@H](NC(=O)CNC(=O)c1cccc(Cl)c1)c1ccccc1 as well.
Outgoing: 7%

Incoming: Please do the same for CCn1c(-c2nc3cc(C(=O)N4CCCC(N)C4)ccc3n2C)cc2ccccc21.Cl (stereo unspecified) as well.
Outgoing: 12%

Incoming: Please do the same for CCc1nn2c(C)cc(C)nc2c1Cc1ccc(-c2nnc(C3CCNCC3)o2)cc1 as well.
Outgoing: 13%

Incoming: Please do the same for CN1CCC(C(=O)c2cccc(NC(=O)c3c(F)cc(F)cc3F)n2)CC1 as well.
Outgoing: 7%
